Target protein (sequence): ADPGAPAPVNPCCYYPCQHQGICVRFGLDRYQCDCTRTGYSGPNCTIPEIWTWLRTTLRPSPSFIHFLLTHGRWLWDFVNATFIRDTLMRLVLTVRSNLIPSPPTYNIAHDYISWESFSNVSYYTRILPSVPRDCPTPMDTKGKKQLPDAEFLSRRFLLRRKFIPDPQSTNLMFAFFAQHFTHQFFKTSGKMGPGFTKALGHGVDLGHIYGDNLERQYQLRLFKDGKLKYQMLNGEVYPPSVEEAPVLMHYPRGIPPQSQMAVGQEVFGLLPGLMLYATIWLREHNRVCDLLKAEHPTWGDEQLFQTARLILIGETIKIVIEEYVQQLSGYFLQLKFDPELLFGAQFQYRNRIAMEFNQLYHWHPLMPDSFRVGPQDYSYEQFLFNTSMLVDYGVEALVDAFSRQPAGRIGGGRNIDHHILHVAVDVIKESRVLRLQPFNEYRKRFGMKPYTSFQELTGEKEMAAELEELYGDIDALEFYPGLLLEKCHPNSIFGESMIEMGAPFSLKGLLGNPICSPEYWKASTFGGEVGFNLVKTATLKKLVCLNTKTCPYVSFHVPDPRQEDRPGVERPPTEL
Non-standard residues stand in square brackets, D forms with d. Residues, ends and D or L forms follow the SMILES beside them. *: point of attachment. Naproxen = COc1ccc2cc([C@H](C)C(=O)*)ccc2c1
Measured IC50, listed per entry for reference.
Answer with a number only, understood to be in µM.

Examples with their reported IC50 follow.
[[record]]
molecule = "COc1ccc2cc([C@H](C)C(=O)NCCCC[C@@H](NC(=O)[C@@H](Cc3ccccc3)NC(=O)[C@H](N)Cc3ccccc3)C(=O)N[C@H](Cc3ccc(O)cc3)C(=O)O)ccc2c1 [compound 6, D-Phe-D-Phe-D-Lys(naproxen)-D-Tyr] (H-[dF][dF][dK](Naproxen)[dY]-OH)"
observed_measurement = 367

[[record]]
molecule = "COc1ccc2cc([C@H](C)C(=O)N[C@@H](Cc3ccccc3)C(=O)N[C@@H](Cc3ccccc3)C(=O)N[C@@H](CCCCN)C(=O)N[C@@H](Cc3ccc(O)cc3)C(=O)O)ccc2c1 [L-4, Naproxen-L-Phe-L-Phe-L-Lys-L-Tyr, reference compound] (Naproxen-FFKY-OH)"
observed_measurement = 115


Could you now consider this next molecule?
Query: Would you mind telling me what IC50 value was observed for COc1ccc2cc([C@H](C)C(=O)NCCCC[C@@H](NC(=O)[C@@H](Cc3ccccc3)NC(=O)[C@H](N)Cc3ccccc3)C(=O)O)ccc2c1 ?
Result: 476
